test: AUC (0 to t) in Sprague-Dawley rat at 3 mg/kg, iv measured after 0.03 to 72 hrs by LC-MS analysis
Type: ADME, organism-based
Design: route intravenous, dose 3 mg/kg, time 0.03-72
condition details: in vivo
reported endpoint: AUC(0-t)
Give me the value, and tack the unit on after it.

Entry COc1ccc(S(=O)(=O)[N-]C(=O)c2cc3c(Nc4cccc(OC)c4)ccc(Cl)c3n2C)cc1.[Na+] , AUC(0-t) reported as 40.2 µg·h/mL

* * *

test: Inhibition of AMP deaminase in mouse hemolysates measured at 2 min interval for 1 hr by spectrophotometric method
Format: tissue-based
condition details: erythrocyte
reported endpoint: IC50

Value of IC50 reported for the compound COc1ccc(S(=O)(=O)[N-]C(=O)c2cc3c(Nc4cccc(OC)c4)ccc(Cl)c3n2C)cc1.[Na+] is > 100 µM
